Taken from the supplement of paper PMC10065799.

# System: Fer (mouse)
# testName: phosphorylation enrichment, bacterial display (enrichment ratio); higher = better substrate or ligand; peptides without Tyr show the background
Classify by measured phosphorylation enrichment: TRUE if it is equal to or exceeds 0.6, FALSE if it is smaller.

recordSequence | assignedCategory
PELINYHQHNF [BTK_Y361_S366F] | TRUE
PADCRYFAFPQ [GAMT_Y222_YF] | TRUE
KLMTEYKRRKQ [ARFGEF3_Y2029_K2031R] | FALSE
ALAPKYHGGGG [HBB_Y146_H144P] | FALSE
KLKEKYEKDIA [HMGB1_Y155] | FALSE
PLQKTYNFNML [SLC4A1_Y553_V557M_YF] | TRUE
RLLRGYDQSAF [HLA-C_Y137_YF] | FALSE
KVMANYMFKAG [MAML2_Y513_YF] | FALSE
SVTCTYSPAFN [TP53_Y126_L130F] | FALSE
MFNPCYGLFEF [NEDD4L_Y680_Y679C_YF] | TRUE
SKNSKYNAGST [PSEN1_Y315_E318G] | FALSE
VGQRPYQPLPE [REEP3_Y170] | FALSE
RSDEDYLCREE [POR_Y573_Y575C] | TRUE
AGRSGYDNREI [BCL2_Y9_T7S] | FALSE
IAINKYGVSLI [MYO7A_Y2136] | FALSE
LTNDRYLATLT [IL6ST_Y396] | FALSE
AFSLKYDQQTQ [SYTL4_Y366_E367D] | FALSE
GITVAYTIPKK [UBA5_Y372] | FALSE
SFPSTYRYERG [INPPL1_Y661_P659S] | FALSE
EKSREYHRLFE [PIK3R1_Y463_D464H_YF] | FALSE
SLDLSYYPTSS [EMD_Y181] | FALSE
FGLTLYPNSRE [MEP1A_Y472_V469L] | FALSE

----------
# testSystem: Fes (UniProt P07332)
# Sequence (P07332 whole entry, looked up): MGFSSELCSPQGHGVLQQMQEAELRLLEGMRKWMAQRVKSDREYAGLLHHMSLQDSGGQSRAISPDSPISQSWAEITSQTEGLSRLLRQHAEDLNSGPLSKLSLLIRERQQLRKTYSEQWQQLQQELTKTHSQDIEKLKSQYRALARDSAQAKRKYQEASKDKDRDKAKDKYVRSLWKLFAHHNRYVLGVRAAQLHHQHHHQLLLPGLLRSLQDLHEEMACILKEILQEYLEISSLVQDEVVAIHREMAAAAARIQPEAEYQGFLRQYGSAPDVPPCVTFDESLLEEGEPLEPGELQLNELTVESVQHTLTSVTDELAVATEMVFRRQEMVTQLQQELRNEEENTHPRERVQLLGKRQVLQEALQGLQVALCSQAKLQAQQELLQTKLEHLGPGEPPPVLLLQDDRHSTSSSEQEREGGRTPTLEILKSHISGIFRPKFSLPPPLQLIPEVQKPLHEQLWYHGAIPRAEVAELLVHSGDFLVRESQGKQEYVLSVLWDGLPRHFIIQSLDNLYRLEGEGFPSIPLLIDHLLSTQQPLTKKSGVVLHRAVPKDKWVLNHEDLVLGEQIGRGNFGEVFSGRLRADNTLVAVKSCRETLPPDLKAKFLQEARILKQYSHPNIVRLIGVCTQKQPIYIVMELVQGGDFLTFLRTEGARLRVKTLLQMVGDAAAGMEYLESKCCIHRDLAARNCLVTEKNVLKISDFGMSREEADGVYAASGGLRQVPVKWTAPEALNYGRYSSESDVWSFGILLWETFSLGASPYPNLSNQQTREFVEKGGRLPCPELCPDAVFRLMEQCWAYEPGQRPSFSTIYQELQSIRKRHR
# testName: phosphorylation enrichment, bacterial display (enrichment ratio); higher = better substrate or ligand; peptides without Tyr show the background
Parameter: phosphorylation enrichment. Scope: all listed entries.

recordSequence | phosphorylation enrichment
ELANYYKLHHI [AK7_Y391] | 0.591
QRPYVYYYSYL [PTEN_Y176_R173P] | 2.35
DLDTEYGSGFP [RNASEH2A_Y206_D205E_YF] | 1.34
SLDLSYYPTSS [EMD_Y181] | 0.947
SSFSGYIMMPN [LEF1_Y114_YF] | 0.934
PSVVAYPKRSQ [MARK3_Y432] | 0.793
PLQKTYNFNML [SLC4A1_Y553_V557M_YF] | 1.17

----------
# testSystem: c-Src SH2;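 note: peptide library displayed on the E. coli surface as eCPX fusions, selected cells deep-sequenced, score is each peptide's frequency after selection divided by its frequency in the input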
# testName: SH2 binding enrichment of the phosphorylated peptide, bacterial display (enrichment ratio); higher = better substrate or ligand; peptides without Tyr show the background
Reported SH2 binding enrichment by item:
quantity: SH2 binding enrichment

recordSequence | quantity | valueMeasured
RSSGPYGGGGQ [HNRNPA1_Y341] | SH2 binding enrichment | 0.606
ELQGTYTSLQQ [KIF3C_Y574_R571Q] | SH2 binding enrichment | 1.9
TVLGEYASPKG [CYP24A1_Y407_L409S] | SH2 binding enrichment | 0.596
